Data origin, for the record: paper PMC11784839

# tested_on: tau (Homo sapiens)
# Sequence (P10636 623-695 limits assumed): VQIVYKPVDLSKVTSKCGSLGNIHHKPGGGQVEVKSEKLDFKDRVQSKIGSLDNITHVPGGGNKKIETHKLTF
# protocol_description: MCE Phenols Library screening, tau biosensor cell seeding assay (AvZ)
# Type: cell-based
# settings: average puncta of the two replicates
experimental_readout: av puncta
# print the numeric value only

Field: example entries. Status: answers known.
O=C1C[C@@H](c2ccc(O)cc2)Oc2cc(O[C@@H]3O[C@H](CO)[C@@H](O)[C@H](O)[C@H]3O)ccc21    14458.7
COC(=O)c1ccccc1O [Methyl Salicylate]    14109.8
O=c1oc2c(O)c(O)cc3c(=O)oc4c(O)c(O)cc1c4c23    12935.6
COc1cc(O)c2c(c1)O[C@H](c1ccccc1)CC2=O    14520.5
COc1cc(-c2coc3cc(O[C@@H]4O[C@H](CO)[C@@H](O)[C@H](O)[C@H]4O)c(OC)c(O)c3c2=O)ccc1O    13061.4

Observed av puncta, tau (Homo sapiens), O=c1cc(-c2ccc(O)cc2)oc2c([C@@H]3O[C@H](CO)[C@@H](O)[C@H](O)[C@H]3O)c(O)c([C@@H]3OC[C@@H](O)[C@H](O)[C@H]3O)c(O)c12 : 15407.7

Value (av puncta, tau (Homo sapiens)) for record O=c1cc(-c2ccc(O)c(O)c2)oc2cc(O[C@@H]3O[C@H](CO)[C@@H](O)[C@H](O)[C@H]3O)c(O)c(O)c12 [6-Hydroxyluteolin 7-glucoside] = 13301.5
